# Target desc: human CYP1A2 (Homo sapiens)
# Sequence (P05177 whole entry): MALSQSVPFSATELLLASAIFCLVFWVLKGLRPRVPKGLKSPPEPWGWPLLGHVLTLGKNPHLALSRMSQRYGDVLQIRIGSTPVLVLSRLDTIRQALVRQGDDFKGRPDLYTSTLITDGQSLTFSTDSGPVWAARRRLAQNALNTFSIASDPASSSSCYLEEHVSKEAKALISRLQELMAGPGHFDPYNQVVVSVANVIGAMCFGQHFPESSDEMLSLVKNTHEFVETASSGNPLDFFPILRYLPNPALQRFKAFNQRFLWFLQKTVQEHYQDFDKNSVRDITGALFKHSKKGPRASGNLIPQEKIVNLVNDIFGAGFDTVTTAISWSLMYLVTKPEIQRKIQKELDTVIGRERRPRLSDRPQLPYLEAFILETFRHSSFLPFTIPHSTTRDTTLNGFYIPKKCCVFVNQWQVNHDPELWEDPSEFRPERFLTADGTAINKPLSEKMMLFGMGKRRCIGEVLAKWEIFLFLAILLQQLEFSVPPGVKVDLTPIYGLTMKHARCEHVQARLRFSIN
pIC50: −log10 of the molar value.
Binary classification by pIC50, with 5 as an inclusive lower bound for yes; all other cases are no.

Test whether the molecule `Cc1ccc([N+](=O)[O-])[c]2c1[O][Hg]2` records pIC50 of 5 or higher.
yes

Item `CCCCCCCCCCCCCC[P+](CCCC)(CCCC)CCCC.CCCCCCCCCCCCc1ccc(S(=O)(=O)[O-])cc1` with pIC50 of 5 or above?
no

Hi, just wondering whether `N=C(Nc1ccccc1)Nc1ccccc1` shows pIC50 of 5 or higher.
no

I'd appreciate it if you could say whether `CSc1ccc(C(=O)C(C)(C)N2CCOCC2)cc1` has pIC50 at least equal to 5.
no

Reported pIC50 at or above 5? CC(=O)O.CC(C)c1ccc2c(c1)CC[C@H]1[C@](C)(CN)CCC[C@]21C [Dehydroabietylamine acetate]
no

Confirm if pIC50 reported for the molecule `COc1cc(Cl)ccc1Oc1ccc(Cl)cc1Cl` is 5 or above.
no

Please check the record `FC(F)(F)c1ccccc1-n1ccnc1` and state if its pIC50 is at or above 5.
yes

Check if pIC50 >= 5 (inclusive). Item: `C=CCc1cc(S(=O)(=O)c2ccc(O)c(CC=C)c2)ccc1O`
no

# bool: pIC50 of C=CCOC(=O)c1ccc(C(=O)OCC=C)c(C(=O)OCC=C)c1 [Triallyl trimellitate] >= 5
yes

Test whether the molecule CCCCCCCCCCCCCCCCn1cc[n+](C)c1.[Cl-] [1-Hexadecyl-3-methylimidazolium chloride] records pIC50 of 5 or higher.
no

Check if pIC50 >= 5 (inclusive). Item: `Cc1cccc2c1cc1ccc3cccc4ccc2c1c34`
yes

Assess whether reported pIC50 for COc1cc(-c2ccc(N)c(OC)c2)ccc1N.Cl.Cl [3,3'-Dimethoxybenzidine dihydrochloride] sits at 5 or higher.
yes

Textbook exercise: given the entry `C[C@H]1CCC[C@H](O)CCCCCc2cc(O)cc(O)c2C(=O)O1` , state whether its pIC50 is greater than or equal to 5.
no

Could you verify whether the entry COc1cccc(CCc2ccccc2OCC(CN(C)C)OC(=O)CCC(=O)O)c1.Cl (centres unmarked) [Sarpogrelate hydrochloride] shows pIC50 of no less than 5?
no

Decide: pIC50 of CCCCCCCC[P+](CCCCCCCC)(CCCCCCCC)CCCCCCCC.[Br-] [Tetraoctylphosphonium bromide] >= 5?
no

API: above_or_equal(metric=pIC50, cutoff=5) for item [Cl][Bi]([Cl])([c]1ccccc1)([c]1ccccc1)[c]1ccccc1 [Triphenylbismuthine dichloride]
no

Please check the record [Cl][Hg][Cl] [Mercuric chloride] and state if its pIC50 is at or above 5.
yes

Is reported pIC50 greater than or equal to 5 here: `O=C(NCc1cccnc1)Nc1ccc([N+](=O)[O-])cc1`
no

Can `Cc1cc(N=Nc2ccccc2C)ccc1N` be said to have pIC50 at or above 5?
yes

Is reported pIC50 greater than or equal to 5 here: CC(=O)[O-].CC(=O)[O-].[Hg+2] [Mercury(II) acetate]
yes

Does `Nc1nc2ccccc2n1Cc1ccc(F)cc1` have a reported pIC50 of at least 5?
no

Could you tell me if the measured pIC50 of NNc1nc(-c2ccccc2)cs1 [2-Hydrazino-4-phenylthiazole] reaches 5 or more?
yes

Please indicate if the recorded pIC50 for `O=S(=O)(O)C(F)(F)C(F)(F)C(F)(F)C(F)(F)C(F)(F)C(F)(F)C(F)(F)C(F)(F)F` meets or exceeds 5.
no

API: above_or_equal(metric=pIC50, cutoff=5) for item `CCCCCCCC[N+](C)(CCCCCCCC)CCCCCCCC.O=S(=O)([O-])C(F)(F)F`
no

Evaluate `COC(=O)c1cc(Cl)ccc1NS(=O)(=O)C(F)(F)F` : pIC50 at minimum 5?
yes

----------
# Target desc: human CYP2C9 (Homo sapiens)
# Sequence (P11712 whole entry): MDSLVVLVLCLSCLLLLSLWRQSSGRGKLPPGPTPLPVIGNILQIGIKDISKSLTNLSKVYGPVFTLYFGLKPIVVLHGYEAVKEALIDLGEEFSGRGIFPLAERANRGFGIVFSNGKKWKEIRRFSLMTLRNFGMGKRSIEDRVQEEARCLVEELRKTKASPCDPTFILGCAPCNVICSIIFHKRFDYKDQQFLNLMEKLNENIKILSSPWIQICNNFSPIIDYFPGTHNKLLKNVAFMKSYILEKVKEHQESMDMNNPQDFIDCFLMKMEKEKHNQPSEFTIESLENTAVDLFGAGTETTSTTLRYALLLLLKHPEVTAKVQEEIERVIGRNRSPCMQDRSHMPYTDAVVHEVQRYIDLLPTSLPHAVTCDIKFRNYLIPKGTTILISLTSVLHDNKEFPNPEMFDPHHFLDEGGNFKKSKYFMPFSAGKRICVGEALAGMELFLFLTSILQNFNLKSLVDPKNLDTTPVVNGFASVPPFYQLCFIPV
# Measurement protocol: biochemical
# Assay setup: CYP2C9 AC50 (half-maximal activity concentration)
Where a name gives a salt, the structure may show the parent alone.
Quantity measured: AC50 (µM)
Numbers only here, please. The scale is µM.

Lookup result for `N#Cc1cc(I)c(O)c(I)c1` ; measured AC50: 22.4

Record C#CC(C)N(C)C(=O)Nc1ccc(Cl)cc1 (centres unmarked) . Reported AC50: 22.8

Record `Cc1ccc(C(=O)c2ccccc2)cc1` . Reported AC50: 34.3

Entry CCCOC(=O)c1ccccc1C(=O)OCCC [Dipropyl phthalate] ; AC50 = 30

The reported AC50 of the molecule `CC(C)Oc1ccc2c(=O)c(-c3ccccc3)coc2c1` was 20.1

Record CC1(C)C(C=C(Cl)Cl)C1C(=O)OC(C#N)c1cccc(Oc2ccccc2)c1 (stereo not drawn) [alpha-Cypermethrin] . Reported AC50: 3.56

The measured AC50 associated with Clc1ccc(C(c2ccccc2Cl)C(Cl)(Cl)Cl)cc1 (centres unmarked) reads 10.9

For this molecule ( O=C(c1ccccc1)C(O)c1ccccc1 (centres unmarked) ), measured AC50 is 2.27

Record `CCCCCCC(C=O)=Cc1ccccc1` , field AC50: 31.1

For reference, reported AC50 for `Nc1c(Br)cc([N+](=O)[O-])cc1Br` stands at 18.1

Lab note: measured AC50 of O=c1[nH]c2ccc([S+]([O-])CCN3CCC(Cc4ccc(F)cc4)CC3)cc2o1 (centres unmarked) was 6.44

// `c1ccc(P(c2ccccc2)c2ccccc2)cc1` : AC50 value = 7.13

Short answer for `N#Cc1cc(Br)c(O)c(Br)c1` : AC50 was 18.7

For `O=S(=O)(c1ccc(O)cc1)c1ccc(O)cc1` the molecule record lists AC50 as 1.34

Per the records, this molecule ( CC1(C)C(C=C(Cl)Cl)C1C(=O)OCc1cccc(Oc2ccccc2)c1 (centres unmarked) ) has AC50 equal to 11.2

Reported AC50 ( `Cc1cc(=O)oc2cc(O)ccc12` ) = 14.6

Consider `Cl[C@H]1[C@H](Cl)[C@@H](Cl)[C@H](Cl)[C@@H](Cl)[C@H]1Cl` . Its measured AC50 is 25.6

For record O=C(C=Cc1ccccc1)OCC=Cc1ccccc1 [3-Phenyl-2-propen-1-yl 3-phenylacrylate] the listed AC50 is 29.4

The recorded AC50 for `O=C(NC(=O)c1c(F)cccc1F)Nc1cc(Cl)c(F)c(Cl)c1F` is 46.5

The molecule `COC(=O)c1cc(Oc2ccc(Cl)cc2Cl)ccc1[N+](=O)[O-]` showed AC50 equal to 7.1

The reported AC50 of the molecule `COP(=O)(OC)O/C(=C\Cl)c1cc(Cl)c(Cl)cc1Cl` was 38.8

AC50 reported for this molecule `O=[N+]([O-])c1ccc2c3c(cccc13)CC2` : 8.98

Given item `O=[N+]([O-])c1cccc2ccccc12` , the value recorded as its AC50 is 31.2

Entry `Cl[C@H]1[C@H](Cl)[C@@H](Cl)[C@@H](Cl)[C@H](Cl)[C@H]1Cl` , AC50 reported as 43.2

`Cc1c(C)c([N+](=O)[O-])c(C(C)(C)C)c([N+](=O)[O-])c1C` has a reported AC50 of 51.7

Field AC50 (entry O=C(Oc1ccccc1)c1ccccc1C(=O)Oc1ccccc1 [Diphenyl phthalate] ) reads 13.7

The molecule `Cc1cc(C)nc(NS(=O)(=O)c2ccc(N)cc2)n1` showed AC50 equal to 54.8

The measured AC50 associated with `Nc1c(Cl)cc([N+](=O)[O-])cc1Cl` reads 17.9

Record CCCSP(=O)(OCC)Oc1ccc(Br)cc1Cl (centres unmarked) , field AC50: 9.76

Measured AC50, `Sc1ncnc2nc[nH]c12` : 22

// field: AC50; key: CC(C)OC(=O)c1ccccc1C(=O)OC(C)C [Diisopropyl phthalate] ; value = 50.4

Value of measured AC50 for the entry CCOC(=O)CCCCCCCCC(=O)OCC [Diethyl decanedioate] : 42.2

Measured AC50 of `COP(=O)(OC)OC(=CCl)c1cc(Cl)c(Cl)cc1Cl` : 29

Please fill in: AC50 reported for `O=C(c1ccc(Cl)cc1)c1ccc(Cl)cc1` = 6.1

Lookup result for `CC(C)(C)c1ccc(CSc2cnn(C(C)(C)C)c(=O)c2Cl)cc1` ; measured AC50: 7.2

Input `CC(=O)[C@H]1CC[C@H]2[C@@H]3C=CC4=CC(=O)CC[C@@]4(C)[C@@H]3CC[C@]12C` . Output AC50: 32.4

Lab note: `C[C@]12C=CC(=O)C=C1CC[C@@H]1[C@@H]2CC[C@@]2(C)[C@H]1CC[C@]2(C)O` gave AC50 of 34.7

Entry under test: CN(C/C=C/c1ccccc1)Cc1cccc2ccccc12 [Naftifine hydrochloride] . Its AC50 was 12.5

----------
The following compounds each carry a recorded CYP2D6 Efficacy for human CYP2D6 (Homo sapiens, UniProt P10635).

Per the record, `CCCCCCCCCCCCCC[P+](CCCC)(CCCC)CCCC.CCCCCCCCCCCCc1ccc(S(=O)(=O)[O-])cc1` has CYP2D6 Efficacy of 0.21 ± 0.10 (-107 ± 3) %

GET /value?item= CCc1cc(Cl)c(OC)c(C(=O)NC[C@@H]2CCCN2CC)c1O.Cl [Eticlopride hydrochloride] &field=CYP2D6 Efficacy returns 0.67 ± 0.09 (-96 ± 1) %

The recorded CYP2D6 Efficacy for entry CCCCCCCCCCCCCCCC[N+](C)(C)Cc1ccccc1.[Cl-] [Benzylhexadecyldimethylammonium chloride] equals 0.34 ± 0.06 (-98 ± 2) %

Measured CYP2D6 Efficacy, CN(C)CCN(Cc1ccc(Cl)cc1)c1ccccn1.Cl [Chloropyramine hydrochloride] : 0.23 ± 0.05 (-101 ± 4) %

Memo: COc1cccc(CCc2ccccc2OCC(CN(C)C)OC(=O)CCC(=O)O)c1.Cl (centres unmarked) [Sarpogrelate hydrochloride] , reported CYP2D6 Efficacy: 0.42 ± 0.24 (-101 ± 2) %

Form: compound = `CCCCCCCCCCCCCCCCCC[N+](C)(C)Cc1ccccc1.[Cl-]` ; CYP2D6 Efficacy = 0.67 ± 0.43 (-99 ± 3) %

In plain terms, Cl.OC(CNCC(O)C1CCc2cc(F)ccc2O1)C1CCc2cc(F)ccc2O1 (racemic) [rac Nebivolol hydrochloride] has a documented CYP2D6 Efficacy of 0.25 ± 0.05 (-104 ± 2) %

C[C@@H](Cc1ccccc1)NCc1ccccc1Cl.Cl [Clobenzorex hydrochloride] has a reported CYP2D6 Efficacy of 0.15 ± 0.03 (-111 ± 2) %

Per the record, `CC(=O)/C=C/c1ccc2c(c1)OCO2` has CYP2D6 Efficacy of 31 ± 5.28 (-103 ± 9) %

CYP2D6 Efficacy in this record for `CC(=O)CCc1ccc2c(c1)OCO2` : 44.96 ± 16.37 (-42 ± 9) %

Noted for `O=S(=O)(Oc1ccc(Cl)cc1)c1ccccc1` : its CYP2D6 Efficacy reads 35.73 ± 4.11 (-62 ± 14) %

So for `Cl.ClCCCN1CCN(c2cccc(Cl)c2)CC1` , the logged CYP2D6 Efficacy turned out to be 0.79 ± 0.18 (-96 ± 4) %

The measured CYP2D6 Efficacy associated with `Cl.Cl.c1ccc(CNCCNCc2ccccc2)cc1` reads 0.79 ± 0.18 (-110 ± 5) %

// CYP2D6 Efficacy lookup, compound = CC[C@H]1C[C@@H]2C[C@H]3c4[nH]c5ccc(OC)cc5c4CCN(C2)[C@@H]13.Cl [Ibogaine hydrochloride] , result: 0.76 ± 0.1 (-105 ± 7) %

Lab note: measured CYP2D6 Efficacy of Cl.FC(F)(F)c1cccc(C2=CCN(CCc3ccc4ccccc4c3)CC2)c1 [Xaliproden hydrochloride] was 0.28 ± 0.18 (-100 ± 3) %

Lab book: CYP2D6 Efficacy of CCOC(=O)c1ccc(OC(=O)CCCCCN=C(N)N)cc1.CS(=O)(=O)O [Gabexate mesilate] noted as 0.27 ± 0.04 (-102 ± 4) %

Per the record, CCCCCCCCCCCCCCCC[N+](C)(C)C.[Cl-] [Hexadecyl trimethyl ammonium chloride] has CYP2D6 Efficacy of 0.8 ± 0.05 (-93 ± 8) %
